Listed here are compounds together with their documented Kp at 0.5 h.
experiment: Pharmacokinetic analysis, plasma and brain; format: in vivo, ICR (CD-1) male mice; settings: male, ICR (CD-1), mouse, brain, iv, 1 mg/Kg, i.v., Time 0.5 h, individual animals; read-out: B/P, Brian/Plasma

STRUCTURE SMILES STRING | RESULT
Clc1ccc2c(c1)OCC(c1ccc(-c3ccccc3)cc1)=N2 | 2.58

// query Which measured Kp at 0.5 h value corresponds to CC(=O)Nc1ccc(C2=Nc3ccc(Cl)cc3OC2)cc1 ?
// result 128

* * *

experiment: Pharmacokinetic analysis, plasma and brain; format: in vivo, ICR (CD-1) male mice; conditions: male, ICR (CD-1), mouse, brain, iv, 1 mg/Kg, i.v., Time 0.083 h, individual animals; read-out: B/P, Brian/Plasma
READOUT: Kp at 0.083 h
Answer field: number only, no words.

STRUCTURE SMILES STRING | Kp at 0.083 h
Clc1ccc2c(c1)OCC(c1ccc(-c3ccccc3)cc1)=N2 | 1.37

Now let's try a different one.
// query Which measured Kp at 0.083 h value corresponds to CC(=O)Nc1ccc(C2=Nc3ccc(Cl)cc3OC2)cc1 ?
// result 71.3
